# STUDY_TARGET: full-length P. pyralis luciferase (Photinus pyralis, UniProt P08659, K549A/L550V/N119G/N50D/S548I)
# Sequence (P08659 whole entry N50D/N119G/S548I/K549A/L550V, looked up): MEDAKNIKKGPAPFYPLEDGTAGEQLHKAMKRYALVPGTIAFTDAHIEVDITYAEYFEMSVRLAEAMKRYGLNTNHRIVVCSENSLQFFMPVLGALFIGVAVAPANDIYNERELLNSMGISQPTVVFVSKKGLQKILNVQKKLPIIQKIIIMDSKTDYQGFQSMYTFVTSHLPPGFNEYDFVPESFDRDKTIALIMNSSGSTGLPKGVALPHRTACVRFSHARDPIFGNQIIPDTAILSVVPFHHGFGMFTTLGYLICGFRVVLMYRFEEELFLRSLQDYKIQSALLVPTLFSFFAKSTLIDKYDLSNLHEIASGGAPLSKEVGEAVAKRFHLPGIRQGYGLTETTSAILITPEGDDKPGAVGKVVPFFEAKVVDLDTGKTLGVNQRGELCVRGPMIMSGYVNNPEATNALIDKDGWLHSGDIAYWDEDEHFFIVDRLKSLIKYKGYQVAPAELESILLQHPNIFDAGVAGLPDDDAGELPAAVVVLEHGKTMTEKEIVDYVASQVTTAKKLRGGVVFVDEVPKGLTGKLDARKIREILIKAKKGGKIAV
# Type: cell-based
# CONDITION_SUMMARY: CC_NCI screening; full-length luciferase counter-screen luminescence; normalized to on-plate 0.3% DMSO controls
Param threshold (90%) applies to Luciferase Assay % Lum; output TRUE when value >= threshold, FALSE when value < threshold.

Solved entries:
INSERT INTO measurements (compound, qualitative_label) VALUES
  ('CO[C@H]1C[C@@H]2CC[C@@H](C)[C@@](O)(O2)C(=O)C(=O)N2CCCC[C@H]2C(=O)O[C@H]([C@H](C)C[C@@H]2CC[C@@H](OC(=O)C(C)(CO)CO)[C@H](OC)C2)CC(=O)[C@H](C)/C=C(\C)[C@@H](O)[C@@H](OC)C(=O)[C@H](C)C[C@H](C)/C=C/C=C/C=C/1C [Temsirolimus]', 'FALSE'),
  ('COC(=O)c1ccc2c(c1)NC(=O)/C2=C(\Nc1ccc(N(C)C(=O)CN2CCN(C)CC2)cc1)c1ccccc1', 'TRUE'),
  ('O=[As]O[As]=O (stereo not drawn) [Arsenic trioxide]', 'TRUE');

Attention now shifts to the item below.
[in] Please tell me: is the compound Cn1cc(CNCC2CCN(c3ncc(C(=O)NO)cn3)CC2)c2ccccc21 at or over 90% in terms of Luciferase Assay % Lum?
[out] TRUE

---

# STUDY_TARGET: FGF14:Nav1.6 C-tail complex (Homo sapiens, UniProt Q92915+Q9UQD0)
# Construct: polymerase chain reaction (PCR) amplification of the FGF14 open reading frame (nt 1–855); C-terminal fragment of Nav1.6 (amino acids 1763–1976) fused with CD4ΔC-tail (amino acids 1–395); expressed in transfected cells
# Sequence (Q92915 1-252 isoform Q92915-2): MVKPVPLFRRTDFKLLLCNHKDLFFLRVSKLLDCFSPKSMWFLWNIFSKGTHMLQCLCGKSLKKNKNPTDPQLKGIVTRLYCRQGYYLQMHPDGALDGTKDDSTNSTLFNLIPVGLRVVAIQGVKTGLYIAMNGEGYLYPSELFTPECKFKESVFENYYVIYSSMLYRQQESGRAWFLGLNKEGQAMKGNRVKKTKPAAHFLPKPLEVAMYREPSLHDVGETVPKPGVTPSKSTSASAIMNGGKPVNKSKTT
# Sequence (Q9UQD0 1763-1976 limits assumed): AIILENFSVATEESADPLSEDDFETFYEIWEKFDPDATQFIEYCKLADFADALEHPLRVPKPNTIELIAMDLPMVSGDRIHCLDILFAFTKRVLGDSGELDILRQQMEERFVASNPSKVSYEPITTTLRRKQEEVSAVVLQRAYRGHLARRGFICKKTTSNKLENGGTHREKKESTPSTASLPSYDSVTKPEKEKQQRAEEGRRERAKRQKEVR
# EXPERIMENT_DESCRIPTION: Split-luciferase complementation assay (LCA) in Clone V double stable HEK293 cells
# Type: cell-based
# CONDITION_SUMMARY: CC_NCI screening, biological replicate Set 2; normalized to on-plate 0.3% DMSO controls (n=16 per plate)
Counter-ions that a name gives are not always drawn.
PARAMETER: Split Luciferase Assay %Lum Set 2 (%)
Reply with just the number (in %).

The examples below pair each entry with its known result.
INSERT INTO measurements (molecule, unit_name, result) VALUES
  ('NC(=O)NO [Hydroxyurea]', '%', 112.35),
  ('CNNCc1ccc(C(=O)NC(C)C)cc1 [Procarbazine hydrochloride]', '%', 96.75),
  ('CCCCCCCCc1ccc(CCC(N)(CO)CO)cc1', '%', 107.15),
  ('CN(C)c1nc(N(C)C)nc(N(C)C)n1', '%', 122.76),
  ('Sc1ncnc2nc[nH]c12', '%', 112.35);

[in] Read off the recorded Split Luciferase Assay %Lum Set 2 for Oc1cccc(-c2nc(N3CCOCC3)c3oc4ncccc4c3n2)c1
[out] 94.67

---

# STUDY_TARGET: FGF14:Nav1.6 C-tail complex (Homo sapiens, UniProt Q92915+Q9UQD0)
# Construct: polymerase chain reaction (PCR) amplification of the FGF14 open reading frame (nt 1–855); C-terminal fragment of Nav1.6 (amino acids 1763–1976) fused with CD4ΔC-tail (amino acids 1–395); expressed in transfected cells
# EXPERIMENT_DESCRIPTION: Split-luciferase complementation assay (LCA) in Clone V double stable HEK293 cells
# Format: cell-based
# CONDITION_SUMMARY: CC_NCI screening; LCA, biological replicate Set 2; normalized to on-plate 0.3% DMSO controls
Structures can show the parent of a compound that is named as a salt.
Here, each record is paired with measured Split Luciferase Assay Z-score Set 2 data.
Just the number.

INSERT INTO results (molecule, parameter, result) VALUES
  ('COc1cc2nccc(Oc3ccc(NC(=O)C4(C(=O)Nc5ccc(F)cc5)CC4)cc3)c2cc1OC [Cabozantinib]', 'Split Luciferase Assay Z-score Set 2', -5.94),
  ('C=CC(=O)Nc1cc2c(Nc3ccc(F)c(Cl)c3)ncnc2cc1OCCCN1CCOCC1', 'Split Luciferase Assay Z-score Set 2', -5.34),
  ('COc1cc2ncn(-c3cc(OCc4ccccc4C(F)(F)F)c(C(N)=O)s3)c2cc1OC [GW 843682X]', 'Split Luciferase Assay Z-score Set 2', 5.75),
  ('CC1(C)CCC(c2ccc(Cl)cc2)=C(CN2CCN(c3ccc(C(=O)NS(=O)(=O)c4ccc(N[C@H](CCN5CCOCC5)CSc5ccccc5)c(S(=O)(=O)C(F)(F)F)c4)cc3)CC2)C1', 'Split Luciferase Assay Z-score Set 2', -2.30),
  ('Cl.Cn1c(CCCC(=O)O)nc2cc(N(CCCl)CCCl)ccc21 [Bendamustine hydrochloride]', 'Split Luciferase Assay Z-score Set 2', 2.27),
  ('NCCCNCCSP(=O)(O)O', 'Split Luciferase Assay Z-score Set 2', 1.34),
  ('CN[C@@H]1C[C@H]2O[C@@](C)([C@@H]1OC)n1c3ccccc3c3c4c(c5c6ccccc6n2c5c31)C(=O)NC4 [Staurosporine, reference compound]', 'Split Luciferase Assay Z-score Set 2', -6.95),
  ('CCN(CCO)CCCOc1ccc2c(Nc3cc(CC(=O)Nc4cccc(F)c4)[nH]n3)ncnc2c1', 'Split Luciferase Assay Z-score Set 2', 0.07),
  ('Cc1ccc(F)c(NC(=O)Nc2ccc(-c3cccc4[nH]nc(N)c34)cc2)c1', 'Split Luciferase Assay Z-score Set 2', -6.36),
  ('CC(C)(C#N)c1cc(Cn2cncn2)cc(C(C)(C)C#N)c1', 'Split Luciferase Assay Z-score Set 2', -0.01);

[in] Hello, please tell me recorded Split Luciferase Assay Z-score Set 2 for this one: COc1cc2/c(=N/c3ccc(Br)cc3F)nc[nH]c2cc1OCC1CCN(C)CC1
[out] -0.94

[in] Return Split Luciferase Assay Z-score Set 2 (reported value) for this molecule: N.N.[Cl][Pt][Cl] [Cisplatin]
[out] -0.10

[in] Determine its reported Split Luciferase Assay Z-score Set 2: CCC1=C[C@@H]2CN(C1)Cc1c([nH]c3ccccc13)[C@@](C(=O)OC)(c1cc3c(cc1OC)N(C)[C@H]1[C@@](O)(C(=O)OC)[C@H](OC(C)=O)[C@]4(CC)C=CCN5CC[C@]31[C@@H]54)C2 [Vinorelbine tartrate]
[out] 6.93

[in] Recall and state the measured Split Luciferase Assay Z-score Set 2 for C[C@@H](Oc1cc(-c2cnn(C3CCNCC3)c2)cnc1N)c1c(Cl)ccc(F)c1Cl .
[out] -4.16

[in] // fetch Split Luciferase Assay Z-score Set 2 given entry CN(NC(=O)CC(=O)NN(C)C(=S)c1ccccc1)C(=S)c1ccccc1
[out] -5.26

[in] Give the reported value of Split Luciferase Assay Z-score Set 2 for this record: O=C(/C=C/c1ccc(CN(CCO)CCc2c[nH]c3ccccc23)cc1)NO
[out] -1.36

This collection of values is drawn from paper PMC6858373.
